system: Panc-1 pancreatic cancer cell line; assay: SRB anti-proliferative assay, Panc-1; type: cell-based, human; details: Homo sapiens, PANC-1; SRB, 48 h; mean of 3 separate experiments; read-out: IC50 Panc-1
measured-property: IC50 (µM)
Give the value, in units of µM, as a plain number.

Before answering, review these 3 worked examples.
O=C(NN=C1CCCc2ccccc21)c1oc2ccccc2c1CN1CCN(c2ccccc2)CC1 [Compound 17] ... 80.4
O=C(NNC(=S)Nc1ccccc1)c1oc2ccccc2c1CN1CCN(c2ccccc2)CC1 [Compound 9a] ... 86.9
O=C(NNC(=S)Nc1cccc(C(F)(F)F)c1)c1oc2ccccc2c1CN1CCN(c2ccccc2)CC1 [Compound 9h] ... 0.94

Turning now to a further record.
// IC50 lookup, compound = O=C(NNC(=S)Nc1ccc(F)cc1)c1oc2ccccc2c1CN1CCN(c2ccccc2)CC1 [Compound 9e] , result: 3.29

---

test system: Panc-1 pancreatic cancer cell line; assay: SRB anti-proliferative assay, Panc-1; assay type: cell-based, human; conditions: Homo sapiens, PANC-1; SRB, 48 h; mean of 3 separate experiments; read-out: IC50 Panc-1
measured-property: IC50 (µM)
Give the value, in units of µM, as a plain number.

Before answering, review these 2 worked examples.
O=C(NN=Cc1ccccc1)c1oc2ccccc2c1CN1CCN(c2ccccc2)CC1 [Compound 13a] ... 169
CC(=NNC(=O)c1oc2ccccc2c1CN1CCN(c2ccccc2)CC1)c1ccccc1 [Compound 15a] ... 120

IC50 value, target or system Panc-1 pancreatic cancer cell line, for COc1ccc(C(C)=NNC(=O)c2oc3ccccc3c2CN2CCN(c3ccccc3)CC2)cc1 [Compound 15b] : 25.4

---

system: non-tumorigenic human lung fibroblast MRC-5 cell line; experiment: Normal cell cytotoxicity, MRC-5; type: cell-based; details: MRC5, normal lung fibroblasts, mean of three separate experiments, read-out: IC50 MRC-5
Attribute: log10 of IC50
Would you kindly interpret these values as log10 of IC50 expressed in µM?

Before answering, review these 6 worked examples.
CC(=O)c1ccc(NC(=S)NNC(=O)c2oc3ccccc3c2CN2CCN(c3ccccc3)CC2)cc1 ... 2.15
O=C(NNC(=S)Nc1ccc(F)cc1)c1oc2ccccc2c1CN1CCN(c2ccccc2)CC1 ... 1.72
COc1cccc(C=NNC(=O)c2oc3ccccc3c2CN2CCN(c3ccccc3)CC2)c1 [Compound 13b] ... 1.26
COc1ccc(C(C)=NNC(=O)c2oc3ccccc3c2CN2CCN(c3ccccc3)CC2)cc1 [Compound 15b] ... 2.20
O=C(NNC(=S)Nc1cccc(Cl)c1)c1oc2ccccc2c1CN1CCN(c2ccccc2)CC1 ... 2.59
O=C(NNC(=S)Nc1ccccc1)c1oc2ccccc2c1CN1CCN(c2ccccc2)CC1 ... 2.61

// log10 of IC50 lookup, compound = O=C(NNC(=S)Nc1ccc(Cl)cc1)c1oc2ccccc2c1CN1CCN(c2ccccc2)CC1 , result: 2.53

// log10 of IC50 lookup, compound = O=C(NNC(=S)Nc1cccc(C(F)(F)F)c1)c1oc2ccccc2c1CN1CCN(c2ccccc2)CC1 , result: 1.44

// log10 of IC50 lookup, compound = O=C(NNC(=S)Nc1cccc(F)c1)c1oc2ccccc2c1CN1CCN(c2ccccc2)CC1 , result: 2.22

// log10 of IC50 lookup, compound = COc1ccc(NC(=S)NNC(=O)c2oc3ccccc3c2CN2CCN(c3ccccc3)CC2)cc1 , result: 2.42

// log10 of IC50 lookup, compound = COc1ccc(C=NNC(=O)c2oc3ccccc3c2CN2CCN(c3ccccc3)CC2)cc1 [Compound 13c] , result: 2.08

// log10 of IC50 lookup, compound = CC(=NNC(=O)c1oc2ccccc2c1CN1CCN(c2ccccc2)CC1)c1ccccc1 [Compound 15a] , result: 2.66

// log10 of IC50 lookup, compound = COc1cccc(NC(=S)NNC(=O)c2oc3ccccc3c2CN2CCN(c3ccccc3)CC2)c1 , result: 2.46

// log10 of IC50 lookup, compound = O=C(NN=C1CCCc2ccccc21)c1oc2ccccc2c1CN1CCN(c2ccccc2)CC1 , result: 2.45

---

Attribute: melting point

// melting point lookup, molecule = CC(=NNC(=O)c1oc2ccccc2c1CN1CCN(c2ccccc2)CC1)c1ccccc1 [Compound 15a] , result: 191 to 193 °C

// melting point lookup, molecule = O=C(NNC(=S)Nc1ccccc1)c1oc2ccccc2c1CN1CCN(c2ccccc2)CC1 , result: 198 to 200 °C

// melting point lookup, molecule = COc1ccc(NC(=S)NNC(=O)c2oc3ccccc3c2CN2CCN(c3ccccc3)CC2)cc1 , result: 182 to 184 °C

// melting point lookup, molecule = O=C(NNC(=S)Nc1ccc(F)cc1)c1oc2ccccc2c1CN1CCN(c2ccccc2)CC1 , result: 218 to 220 °C

---

target: UniProt P24941
Labelling field: enter 1 (yes) if recorded IC50 is less than 100 nM. Enter 0 (no) if it equals or exceeds that cut-off.

// below: answered compounds
COc1ccc(C=NNC(=O)c2oc3ccccc3c2CN2CCN(c3ccccc3)CC2)cc1 [Compound 13c] ... 1 (yes)
COc1ccc(C(C)=NNC(=O)c2oc3ccccc3c2CN2CCN(c3ccccc3)CC2)cc1 [Compound 15b] ... 0 (no)

Inquiry: Find out if reported IC50 for O=C(NNC(=S)Nc1ccccc1)c1oc2ccccc2c1CN1CCN(c2ccccc2)CC1 [Compound 9a] is less than 100 nM
Reply text: 0 (no)

Inquiry: Find out if reported IC50 for COc1cccc(C=NNC(=O)c2oc3ccccc3c2CN2CCN(c3ccccc3)CC2)c1 [Compound 13b] is less than 100 nM
Reply text: 1 (yes)

Inquiry: Find out if reported IC50 for COc1cccc(NC(=S)NNC(=O)c2oc3ccccc3c2CN2CCN(c3ccccc3)CC2)c1 [Compound 9b] is less than 100 nM
Reply text: 1 (yes)

Inquiry: Find out if reported IC50 for COc1ccc(NC(=S)NNC(=O)c2oc3ccccc3c2CN2CCN(c3ccccc3)CC2)cc1 [Compound 9c] is less than 100 nM
Reply text: 0 (no)

Inquiry: Find out if reported IC50 for O=C(NNC(=S)Nc1cccc(Cl)c1)c1oc2ccccc2c1CN1CCN(c2ccccc2)CC1 [Compound 9f] is less than 100 nM
Reply text: 0 (no)

Inquiry: Find out if reported IC50 for CC(=NNC(=O)c1oc2ccccc2c1CN1CCN(c2ccccc2)CC1)c1ccccc1 [Compound 15a] is less than 100 nM
Reply text: 0 (no)

Inquiry: Find out if reported IC50 for O=C(NN=Cc1ccccc1)c1oc2ccccc2c1CN1CCN(c2ccccc2)CC1 [Compound 13a] is less than 100 nM
Reply text: 0 (no)

Inquiry: Find out if reported IC50 for O=C(NNC(=S)Nc1cccc(C(F)(F)F)c1)c1oc2ccccc2c1CN1CCN(c2ccccc2)CC1 [Compound 9h] is less than 100 nM
Reply text: 1 (yes)

---

test system: Panc-1 pancreatic cancer cell line; assay: SRB anti-proliferative assay, Panc-1; assay type: cell-based, human; conditions: Homo sapiens, PANC-1, 48 h, read-out: IC50 Panc-1
measured-property: pIC50
In textbook form, pIC50 equals minus log to base ten of the concentration in mol/L.

pIC50 value, target or system Panc-1 pancreatic cancer cell line, for COc1cccc(NC(=O)NNC(=O)c2oc3ccccc3c2CN2CCN(c3ccccc3)CC2)c1 [Compound 11b] : 4.99

pIC50 value, target or system Panc-1 pancreatic cancer cell line, for COc1ccc(NC(=O)NNC(=O)c2oc3ccccc3c2CN2CCN(c3ccccc3)CC2)cc1 [Compound 11c] : 4.21

---

measured-property: melting point

Before answering, review these 2 worked examples.
COc1ccc(C=NNC(=O)c2oc3ccccc3c2CN2CCN(c3ccccc3)CC2)cc1 [Compound 13c] ... 181 to 182 °C
COc1cccc(C=NNC(=O)c2oc3ccccc3c2CN2CCN(c3ccccc3)CC2)c1 [Compound 13b] ... 176 to 178 °C

// melting point lookup, compound = O=C(NNC(=S)Nc1ccc(Cl)cc1)c1oc2ccccc2c1CN1CCN(c2ccccc2)CC1 [Compound 9g] , result: 197 to 199 °C

---

Test system: Panc-1 pancreatic cancer cell line
Test: SRB anti-proliferative assay, Panc-1
Assay type: cell-based, human
Settings: Homo sapiens, PANC-1; SRB, 48 h; mean of 3 separate experiments; read-out: IC50 Panc-1
Experimental: The experimental details for the performed biological assays; Sulforhodamine B (SRB) cytotoxicity, CDK2 kinase, Annexin V-FITC apoptosis, and cell cycle assays[86–89] were mentioned in the Supporting Information. 1. Anti-proliferative activity assay […] a 25 cm2 flask in 5 ml of culture medium. The anti-proliferative activity of the tested 3-(piperazinylmethyl)benzofurans (9, 11, 13, 15 and 17) was measured in vitro using the Sulfo-Rhodamine-B stain (SRB) assay. […]
Labelling field: enter 1 (yes) if recorded IC50 is less than 20 µM. Enter 0 (no) if it equals or exceeds that cut-off.

// below: answered molecules
O=C(NNC(=S)Nc1ccc(Cl)cc1)c1oc2ccccc2c1CN1CCN(c2ccccc2)CC1 ... 0 (no)
CC(=O)c1ccc(NC(=S)NNC(=O)c2oc3ccccc3c2CN2CCN(c3ccccc3)CC2)cc1 ... 1 (yes)
O=C(NNC(=S)Nc1cccc(F)c1)c1oc2ccccc2c1CN1CCN(c2ccccc2)CC1 ... 0 (no)
O=C(NNC(=S)Nc1cccc(Cl)c1)c1oc2ccccc2c1CN1CCN(c2ccccc2)CC1 ... 0 (no)

Inquiry: Find out if reported IC50 for COc1cccc(C=NNC(=O)c2oc3ccccc3c2CN2CCN(c3ccccc3)CC2)c1 [Compound 13b] is less than 20 µM
Reply text: 1 (yes)

Inquiry: Find out if reported IC50 for COc1cccc(NC(=S)NNC(=O)c2oc3ccccc3c2CN2CCN(c3ccccc3)CC2)c1 is less than 20 µM
Reply text: 0 (no)

Inquiry: Find out if reported IC50 for COc1ccc(C=NNC(=O)c2oc3ccccc3c2CN2CCN(c3ccccc3)CC2)cc1 [Compound 13c] is less than 20 µM
Reply text: 1 (yes)

Inquiry: Find out if reported IC50 for COc1ccc(NC(=S)NNC(=O)c2oc3ccccc3c2CN2CCN(c3ccccc3)CC2)cc1 is less than 20 µM
Reply text: 0 (no)
